IC50 overview
testSystem: wild-type menin / MLL-AF9 fusion protein (Homo sapiens)
Construct: HEK293 cleared lysate (MLL-AF9-FLAG)
Sequence (O00255 whole entry, species assumed, the tested form may be a part): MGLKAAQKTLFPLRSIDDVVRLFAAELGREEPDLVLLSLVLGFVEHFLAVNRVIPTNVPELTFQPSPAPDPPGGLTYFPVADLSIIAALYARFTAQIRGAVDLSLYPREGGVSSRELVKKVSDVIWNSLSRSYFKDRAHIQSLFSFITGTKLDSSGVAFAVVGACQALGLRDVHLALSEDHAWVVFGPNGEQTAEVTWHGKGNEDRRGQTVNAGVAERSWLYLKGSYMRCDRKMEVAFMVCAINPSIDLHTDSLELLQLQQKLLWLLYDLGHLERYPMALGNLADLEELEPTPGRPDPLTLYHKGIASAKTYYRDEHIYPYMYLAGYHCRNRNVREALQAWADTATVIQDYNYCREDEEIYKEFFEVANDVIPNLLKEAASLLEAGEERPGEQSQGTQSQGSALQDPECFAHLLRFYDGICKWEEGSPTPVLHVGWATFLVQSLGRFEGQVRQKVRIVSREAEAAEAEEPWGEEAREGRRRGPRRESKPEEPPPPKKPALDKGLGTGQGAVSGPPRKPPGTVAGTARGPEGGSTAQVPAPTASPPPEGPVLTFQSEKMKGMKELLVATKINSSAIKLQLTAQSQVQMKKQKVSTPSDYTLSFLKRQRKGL
runDescription: AlphaLISA menin/MLL binding assay, wild-type menin (Assay 1)
statedConditions: biotinylated wild-type menin 5 nM, MLL-AF9-FLAG lysate

Examples with answers:
[[record]]
molecule = "Cc1c(CN2CCC3(CC2)CCN(c2ncnc4sc(CC(F)(F)F)cc24)C3)ccc2[nH]c(C#N)cc12"
reportedmeasurement = "≥ 1000 nM"

[[record]]
molecule = "FC(F)(F)Cc1cc2c(N3CC4(CN(CC5CC(F)(F)C5)C4)C3)ncnc2s1"
reportedmeasurement = "≥ 1000 nM"

[[record]]
molecule = "FC(F)(F)Cc1cc2c(N3CCC4(CC3)CN(CC3CCCO3)C4)ncnc2s1 (stereo not shown)"
reportedmeasurement = "≥ 1000 nM"

[[record]]
molecule = "FC(F)(F)Cc1cc2c(N3CCC4(CC3)CN(C3CCCCC3)C4)ncnc2s1"
reportedmeasurement = "100 to 1000 nM"


QUERY: Record `Cc1c(CN2CCC3(C2)CN(c2ncnc4sc(CC(F)(F)F)cc24)C3)ccc2[nH]c(C#N)cc12` : what is its IC50 with wild-type menin / MLL-AF9 fusion protein (Homo sapiens)?
RESULT: < 100 nM

QUERY: Record `CC(C)(C)CN1CC2(CCN(c3ncnc4sc(CC(F)(F)F)cc34)CC2)C1` : what is its IC50 with wild-type menin / MLL-AF9 fusion protein (Homo sapiens)?
RESULT: 100 to 1000 nM
